These data points were gathered from patent US8329686B2.

IC50 values for the compounds below.
target: caspase-3 (Homo sapiens, UniProt P42574); construct: purchased Sigma-Aldrich (St. Louis, Mo.); test: Enzyme inhibition assay, caspase 3 (fluorogenic Ac-DEVD-AMC); format: biochemical; settings: IC50 (nM) Caspase 3, Table 2
Sequence (P42574 29-175 limits assumed): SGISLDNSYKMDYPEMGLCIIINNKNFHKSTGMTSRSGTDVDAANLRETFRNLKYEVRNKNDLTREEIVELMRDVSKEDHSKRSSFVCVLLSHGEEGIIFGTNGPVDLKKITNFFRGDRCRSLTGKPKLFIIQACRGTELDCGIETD
Sequence (P42574 176-277 limits assumed): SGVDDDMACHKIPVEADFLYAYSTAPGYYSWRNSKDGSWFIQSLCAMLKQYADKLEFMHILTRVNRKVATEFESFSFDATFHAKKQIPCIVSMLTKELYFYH
Please state the value followed by its unit.

Some entries whose results are on file:
In [3]: df
Out[3]:
                                   compound  experimentalendpoint  measurement
0  N#CC(C#N)=C1C(=O)N(Cc2ccc(Br)cc2)c2ccc(S(=O)(=O)N3CCCC3COc3cccnc3)cc21 (centres unmarked) [Compound 30c]                  IC50      5.13 nM
1  COc1ccc(CN2C(=O)C(=C(C#N)C#N)c3cc(S(=O)(=O)N4CCCC4COc4cccnc4)ccc32)cc1 (centres unmarked) [Compound 30d]                  IC50       7.8 nM
2  N#CC(C#N)=C1C(=O)N(Cc2ccccc2)c2ccc(S(=O)(=O)N3CCCC3COc3ccccc3)cc21 (centres unmarked) [Compound 27b]                  IC50      27.8 nM
3  N#CC(C#N)=C1C(=O)N(Cc2ccc(O)cc2)c2ccc(S(=O)(=O)N3CCCC3COc3cccnc3)cc21 (centres unmarked) [Compound 30b]                  IC50       7.8 nM

Next compound, IC50 to be filled in.
For N#CC(C#N)=C1C(=O)N(Cc2ccccc2)c2ccc(S(=O)(=O)N3CCCC3COc3cccnc3)cc21 (centres unmarked) [Compound 30a] , what is its reported IC50?
7.6 nM
